# studySystem: RmlA Q83N (Salmonella typhimurium, UniProt P26393, Q83N)
# Construct: His6 (pET28a) (N); made in house; host or cells: Escherichia coli BL21 (DE3)
# Sequence (P26393 whole entry Q83N): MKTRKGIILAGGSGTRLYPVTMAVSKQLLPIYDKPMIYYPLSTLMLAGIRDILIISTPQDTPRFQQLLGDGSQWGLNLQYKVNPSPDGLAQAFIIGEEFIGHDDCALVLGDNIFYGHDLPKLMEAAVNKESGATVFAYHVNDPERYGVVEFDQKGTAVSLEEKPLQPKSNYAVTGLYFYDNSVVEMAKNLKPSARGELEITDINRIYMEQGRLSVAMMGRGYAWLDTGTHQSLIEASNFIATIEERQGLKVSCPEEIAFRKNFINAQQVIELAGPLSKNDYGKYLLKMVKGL
# assayMethodText: Relative activity of RmlA mutant Q83N with alternative NTPs
# Assay type: biochemical, Salmonella enterica typhimurium LT2
# cond: 10 mM Glucose-1-phosphate, 0.1-10 μM enzyme, 5 mM NTP, 10 mM MgCl2, pH 8.0, 37° C.
# Procedure: RmlA mutagenesis—RmlA mutants were generated with the Quikchange mutagenesis kit (Stratagene, La Jolla, Calif., USA) using the wt RmlA-pET28a parent expression plasmid as the template and the primers indicated in Table 1. […] Product Characterization—Reactions were analyzed via analytical HPLC (Supelcosil LC18-T; Supelco, Bellefonte, Pa.; 5 μm, 250×3 mm, 40 mM phosphoric acid, pH 6.5 with triethylamine, with a gradient of 0-10% MeOH over 20 min, 0.8 mL/min, A254). […]
readoutKind: Relative activity of Q83N as compared to wt RmlA

Some compounds with known Relative activity of Q83N as compared to wt RmlA results, for comparison:
> print(dat)
                                   compound  experimentalvalue
1  Nc1nc2c(ncn2[C@@H]2O[C@H](COP(=O)(O)OP(=O)(O)OP(=O)(O)O)[C@@H](O)[C@H]2O)c(=O)[nH]1 [GTP, guanosine-5′-triphosphate]                0.2
2  Nc1ncnc2c1ncn2[C@@H]1O[C@H](COP(=O)(O)OP(=O)(O)OP(=O)(O)O)[C@@H](O)[C@H]1O [ATP, adenosine-5′-triphosphate]                6.5

Lookup: Relative activity of Q83N as compared to wt RmlA / RmlA Q83N (Salmonella typhimurium, UniProt P26393, Q83N) / Nc1ncnc2c1ncn2[C@H]1C[C@H](O)[C@@H](COP(=O)(O)OP(=O)(O)OP(=O)(O)O)O1 [dATP, 2′-deoxyadenosine-5′-triphosphate]
3.8

API: value(readout= Relative activity of Q83N as compared to wt RmlA, system= RmlA Q83N (Salmonella typhimurium, UniProt P26393, Q83N), query= Cc1cn([C@H]2C[C@H](O)[C@@H](COP(=O)(O)OP(=O)(O)OP(=O)(O)O)O2)c(=O)[nH]c1=O [dTTP, 2′deoxythymidine-5′-triphosphate] )
0.3

###

Reported Relative activity of Q83D as compared to wt RmlA values follow for various molecules
# studySystem: RmlA Q83D (Salmonella typhimurium, UniProt P26393, Q83D)
# Construct: using BSA as a standard, and a molecular mass of 34.6 kDa; His6 (pET28a) (N); made in house; host or cells: Escherichia coli BL21 (DE3)
# Sequence (P26393 whole entry Q83D): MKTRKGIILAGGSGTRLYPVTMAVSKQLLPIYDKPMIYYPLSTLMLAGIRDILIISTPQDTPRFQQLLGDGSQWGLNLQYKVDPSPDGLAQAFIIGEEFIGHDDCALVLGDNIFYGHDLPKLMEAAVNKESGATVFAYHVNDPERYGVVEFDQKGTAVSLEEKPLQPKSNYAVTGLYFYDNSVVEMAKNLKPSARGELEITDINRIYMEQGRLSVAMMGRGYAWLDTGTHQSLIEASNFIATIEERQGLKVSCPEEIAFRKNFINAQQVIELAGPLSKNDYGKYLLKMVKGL
# assayMethodText: Relative activity of RmlA mutant Q83D with alternative NTPs
# Format: biochemical, Salmonella enterica typhimurium LT2
# cond: 10 mM Glucose-1-phosphate, 0.1-10 μM enzyme, 5 mM NTP, 10 mM MgCl2, pH 8.0, 37° C.
No unit in the answer, please; the number alone is enough.

Known Relative activity of Q83D as compared to wt RmlA results, listed for orientation:
> print(dat)
                                   molecule                               studysystem  experimentalvalue
1  Nc1ccn([C@@H]2O[C@H](COP(=O)(O)OP(=O)(O)OP(=O)(O)O)[C@@H](O)[C@H]2O)c(=O)n1 [CTP, cytidine-5′-triphosphate]  RmlA Q83D (Salmonella typhimurium, UniProt P26393, Q83D)                0.2
2  Nc1ccn([C@H]2C[C@H](O)[C@@H](COP(=O)(O)OP(=O)(O)OP(=O)(O)O)O2)c(=O)n1 [dCTP, 2′-deoxycytidine-5′-triphosphate]  RmlA Q83D (Salmonella typhimurium, UniProt P26393, Q83D)                1.2
3  O=c1ccn([C@@H]2O[C@H](COP(=O)(O)OP(=O)(O)OP(=O)(O)O)[C@@H](O)[C@H]2O)c(=O)[nH]1 [UTP, uridine-5′-triphosphate]  RmlA Q83D (Salmonella typhimurium, UniProt P26393, Q83D)                0.2
4  Nc1ncnc2c1ncn2[C@H]1C[C@H](O)[C@@H](COP(=O)(O)OP(=O)(O)OP(=O)(O)O)O1 [dATP, 2′-deoxyadenosine-5′-triphosphate]  RmlA Q83D (Salmonella typhimurium, UniProt P26393, Q83D)                0.8

Looking for the measured Relative activity of Q83D as compared to wt RmlA of Nc1nc2c(ncn2[C@H]2C[C@H](O)[C@@H](COP(=O)(O)OP(=O)(O)OP(=O)(O)O)O2)c(=O)[nH]1 [dGTP, 2′-deoxyguanosine-5′-triphosphate] , can you help?
1.6

###

# studySystem: RmlA Q83A (Salmonella typhimurium, UniProt P26393, Q83A)
# Construct: His6 (pET28a) (N); made in house; host or cells: Escherichia coli BL21 (DE3)
# Sequence (P26393 whole entry Q83A): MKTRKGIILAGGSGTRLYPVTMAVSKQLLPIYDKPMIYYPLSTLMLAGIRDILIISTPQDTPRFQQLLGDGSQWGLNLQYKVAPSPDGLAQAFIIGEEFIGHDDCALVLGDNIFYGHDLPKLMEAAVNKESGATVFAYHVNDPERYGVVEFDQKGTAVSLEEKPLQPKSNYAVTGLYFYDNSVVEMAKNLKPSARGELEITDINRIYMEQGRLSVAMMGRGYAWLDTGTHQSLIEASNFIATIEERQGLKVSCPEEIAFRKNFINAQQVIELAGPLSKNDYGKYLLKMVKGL
# assayMethodText: Relative activity of RmlA mutant Q83A with alternative NTPs
# Assay type: biochemical, Salmonella enterica typhimurium LT2
# cond: 10 mM Glucose-1-phosphate, 0.1-10 μM enzyme, 5 mM NTP, 10 mM MgCl2, pH 8.0, 37° C.
# Relative activity of Q83A as compared to wt RmlA values compiled below
Answer using only a numeral; do not append any unit.

> print(dat)
                                   compound  experimentalvalue
1  Nc1ncnc2c1ncn2[C@@H]1O[C@H](COP(=O)(O)OP(=O)(O)OP(=O)(O)O)[C@@H](O)[C@H]1O [ATP, adenosine-5′-triphosphate]                7.9
2  O=c1ccn([C@@H]2O[C@H](COP(=O)(O)OP(=O)(O)OP(=O)(O)O)[C@@H](O)[C@H]2O)c(=O)[nH]1 [UTP, uridine-5′-triphosphate]                0.2
3  Nc1ncnc2c1ncn2[C@H]1C[C@H](O)[C@@H](COP(=O)(O)OP(=O)(O)OP(=O)(O)O)O1 [dATP, 2′-deoxyadenosine-5′-triphosphate]                4.6
4  Nc1ccn([C@@H]2O[C@H](COP(=O)(O)OP(=O)(O)OP(=O)(O)O)[C@@H](O)[C@H]2O)c(=O)n1 [CTP, cytidine-5′-triphosphate]                1.3

Switching to the query record.
Query Relative activity of Q83A as compared to wt RmlA on RmlA Q83A (Salmonella typhimurium, UniProt P26393, Q83A) for Cc1cn([C@H]2C[C@H](O)[C@@H](COP(=O)(O)OP(=O)(O)OP(=O)(O)O)O2)c(=O)[nH]c1=O [dTTP, 2′deoxythymidine-5′-triphosphate]
0.2
